- Test system: MCF7 breast
- Assay Overview: NCI tumour cell line growth inhibition, 48 h
Below is a list of entries, each paired with its recorded TGI value.

These recorded examples may help you get a feel for the data.
- Chemical String: "CCOC(=O)C1=NN(c2ccccc2)C2=CC(C)=NN(C)C(=S)N21"
  Measurement Target: "MCF7 breast"
  TGI: "> 100 µM"
- Chemical String: "COc1cccc2c(=O)c3c(sc12)c(NCCN(C)C)nc1ccccc13"
  Measurement Target: "MCF7 breast"
  TGI: "2.7 µM"
- Chemical String: "N/C(COc1ccc(Cl)cc1)=N\\NC(=O)c1ccncc1"
  Measurement Target: "MCF7 breast"
  TGI: "> 100 µM"
- Chemical String: "CN(C)/C=C/c1nnnn1-c1ccc(I)cc1"
  Measurement Target: "MCF7 breast"
  TGI: "65 µM"
- Chemical String: "COC(=O)[C@@]1(O)C[C@H]2O[C@]1(C)n1c3ccccc3c3c4c(c5c6ccccc6n2c5c31)C(=O)NC4"
  Measurement Target: "MCF7 breast"
  TGI: "4.34 µM"

Now for a further molecule.
IN: Provide one value: measured TGI of `Nc1ncc(CN2CCOCC2)c(-c2ccccc2O)n1`
OUT: > 100 µM
